# assay target: HNE (Homo sapiens, UniProt P08246)
# Construct: purchased Athens Research and Technology
# Sequence (P08246 30-267): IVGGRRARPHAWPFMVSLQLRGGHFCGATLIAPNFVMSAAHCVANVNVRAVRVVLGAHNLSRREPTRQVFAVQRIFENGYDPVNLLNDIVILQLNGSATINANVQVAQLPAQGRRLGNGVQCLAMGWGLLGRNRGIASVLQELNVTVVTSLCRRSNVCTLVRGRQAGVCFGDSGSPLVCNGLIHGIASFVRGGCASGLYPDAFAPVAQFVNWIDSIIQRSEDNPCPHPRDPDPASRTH
# experiment summary: Enzymatic activity assay, HNE (fluorogenic substrate MeOSuc-AAPV-AMC)
# Assay type: biochemical
# applied conditions: 0.5 nM enzyme, 5 μM substrate, triplicates; best enantiomer for compounds 5-8; read-out: IC50 HNE
readout name: IC50 (pM)
Lab book: enter the figure in pM, no units written.

Solved entries:
IC50 reading for `COC(=O)Nc1nc2n(n1)[C@H](c1ccc(C#N)cc1)C(C#N)=C(C)N2c1cccc(C(F)(F)F)c1` : 1100

For this compound ( `CC1=C(C#N)[C@@H](c2ccc(C#N)cc2)n2nc(NC(=O)C3CC3)nc2N1c1cccc(C(F)(F)F)c1` ), measured IC50 is 600

Summary for this compound, `CNc1nc2n(n1)[C@H](c1ccc(C#N)cc1)C(C#N)=C(C)N2c1cccc(C(F)(F)F)c1` : IC50 is 1300

Then this compound:
Per the records, this compound ( `CNC(=O)Nc1nc2n(n1)[C@H](c1ccc(C#N)cc1)C(C#N)=C(C)N2c1cccc(C(F)(F)F)c1` ) has IC50 equal to 800

These data points were gathered from paper PMC10865350.
